Form field: TGI (one value per entry).
# System: MDA-MB-231 breast
# Test description: NCI tumour cell line growth inhibition, 48 h
Observed property: TGI

Molecule	Result
COc1ccc(-c2c(C(C)=O)c(-c3ccccc3)n(C3OC(CO)C(O)C(O)C3O)c(=S)c2C#N)cc1 (stereo not drawn)	> 100 µM
NC(=Nc1ccccc1Cl)c1ccccc1N	> 100 µM
CCCC(C)c1ccc(OCCCCCCN2CCNCC2)cc1 (stereo not drawn)	3.58 µM
OC(CC1CCCCN1)c1ccc2c(c1)oc1ccccc12 (stereo not drawn)	> 100 µM
CCN1C(=O)/C(=C/c2c(Cl)[nH]c3cc(C)c(OC)cc23)c2ccccc21	54.1 µM
Cc1ccc2c(ccc(/C=C/c3ccc(O)c4ncccc34)[n+]2C)c1	> 61.8 µM
CCCCCCNCCc1cnc[nH]1	> 100 µM
C=C1c2c(C)nn(-c3ccc(C#CCOC4OC(CO)C(O)C(O)C4O)cc3)c2N(C)C23C[C@H]1C1(C)c4c(C)nn(-c5ccc(C#CCOC6OC(CO)C(O)C(O)C6O)cc5)c4N(C)C(C)(C[C@H]12)C3 (stereo partly drawn)	3.06 µM

====

# Tested on: PC-3 prostate
# Test description: NCI tumour cell line growth inhibition, 48 h; in the data active means GI50 below about 0.43 µM; inactive means the rest
Classes used: TRUE for active, FALSE for inactive

Compound	Label value
COc1cc(Nc2ncccc2C(=O)Nc2nc3ccc(F)cc3s2)cc(OC)c1OC	FALSE
O=c1[nH]c2ccccc2cc1-c1nc2ccc(Cl)cc2[nH]1	FALSE
Nc1ncc(-c2cnn(C3CCNCC3)c2)cc1-c1nc2cc(Cl)ccc2o1	FALSE
CN(c1ccc(NC(=O)Nc2c(Cl)cccc2Cl)cc1)c1ccnc(Nc2cccc(CS(C)(=O)=O)c2)n1	FALSE
N[C@H](C(=O)O)[C@@H]1CC(Cl)=NO1	FALSE
COc1ccc2c(c1)C(=O)CCc1cc(OC)c(OC)c(OC)c1-2	TRUE
O=C1NC(=S)S/C1=C/c1ccc2c(c1)OCO2	FALSE
Cc1ccc(C2=C(c3ccc(C)cc3)C3(c4ccc(C)cc4)C4C(=O)OC(=O)C4C2(c2ccc(C)cc2)S3=O)cc1 (stereo not given)	FALSE
O=C1C=CC(=O)C2C1C1(Cl)C(Cl)=C(Cl)C2(Cl)C1(Cl)Cl (stereo not given)	FALSE
CCN1C(=O)c2ccc3c4c(ccc(c24)C1=O)C(=O)N(CCCNCc1ccccc1OC)C3=O	FALSE

====

# Tested on: SN12C renal
# Test description: NCI tumour cell line growth inhibition, 48 h

Molecule	Censoring sign	TGI / µM
CCOC1C(Br)Cn2c(=O)c3cc4ccccc4cc3c(=O)n2C1C (stereo not given)	>	100
S=C(N/N=C/c1ccccn1)N1CCCCC1	=	1.96
Cc1ccc(S(=O)(=O)N=Nc2c(O)[nH]c3cc(O)c(C(=O)O)cc23)cc1	>	100
C#CCn1c(=O)c(I)cn(/C(=C/C(=O)OCC)C(=O)OCC)c1=O	=	32.3
CC1(C)C2CCC1(C)C(N/C(Sc1ccccc1)=C(/C(Cl)=C(Cl)Cl)[N+](=O)[O-])C2 (stereo not given)	=	31
CN(C)Cc1cc(C(F)(F)F)ccc1C(O)(c1ccccc1)c1ccccc1	=	29.3
Cc1cn(-c2cc(NC(=O)c3cccc(C#Cc4cccc5[nH]nc(N)c45)c3)cc(C(F)(F)F)c2)cn1	>	100
O=C(O)c1c2c(cc3c1CC(Cc1ccccc1)C3=O)CCC2 (stereo not given)	>	100
CC(C)(C)C1=C(Br)C(C(C)(C)C)OP1(=O)O (stereo not given)	>	100
CC1(O)C(C)(O)C2(C)O[Te]3(OC12C)OC1(C)C(C)(O)C(C)(O)C1(C)O3 (stereo not given)	>	100

====

# Tested on: A498 renal
# Test description: NCI tumour cell line growth inhibition, 48 h
Form field: TGI (one value per entry).
Observed property: TGI

Compound	Tested target	Result
C=CCn1c(N)c(C#N)c(C#N)c1CCC	A498 renal	> 100 µM
Cc1cn(-c2cc(NC(=O)c3cccc(C#Cc4cccc5[nH]nc(N)c45)c3)cc(C(F)(F)F)c2)cn1	A498 renal	82.4 µM
CC1(C)N=C(N)N=C(N)N1c1ccc(CCC(=O)Nc2ccc(S(=O)(=O)F)cc2)c(Cl)c1	A498 renal	> 100 µM
COCCOC(=O)C1=C(O)c2ccccc2S(=O)(=O)N1C	A498 renal	> 100 µM
O=C(O)c1ccc(CN2CCC(CN[C@@H]3C[C@H]3c3ccccc3)CC2)cc1	A498 renal	> 100 µM
Nc1ccccc1CCN1CCN(CCCc2ccccc2)CC1	A498 renal	> 100 µM
CC(C)NC(=O)OCc1c2c(n(C)c1COC(=O)NC(C)C)-c1cc(Cl)c(Cl)cc1CC2	A498 renal	18.7 µM
O=S(=O)(C1=CC(S(=O)(=O)c2ccccc2)CN(Cc2ccccc2)C1c1cccc2ccccc12)c1ccccc1 (stereo not given)	A498 renal	> 69 µM
O=C(O)c1c2c(cc3c1CC(Cc1ccccc1)C3=O)CCC2 (stereo not given)	A498 renal	> 100 µM
O=C(O)CCCc1ccc2ccc3ccccc3c2c1	A498 renal	> 100 µM
COc1ccc(NC(=O)CC/C(CC(=O)c2ccco2)=N/NC(=O)C(N)=O)cc1	A498 renal	> 100 µM
CCOC(=O)/C=C(\C(=O)OCC)n1cc(C)c(=O)n(Cc2cn(CCCCOC(C)=O)nn2)c1=O	A498 renal	33 µM
CCCCCCCC(CC(=O)NC(CO)C(=O)NC(CO)CC(C)C)OC(=O)CC(CCCCCCC)OC(=O)CC(CCCCCCC)OC1OC(C)C(O)C(OC2OC(C)C(OC(C)=O)C(O)C2O)C1O (stereo not given)	A498 renal	23.5 µM
NC(CCCC(N)P(=O)(O)O)P(=O)(O)O (stereo not given)	A498 renal	> 100 µM
CCN1C(=O)/C(=C/c2c(Cl)[nH]c3cc(C)c(OC)cc23)c2ccccc21	A498 renal	33 µM
COc1ccc2c(c1)OC1=C(C(=O)OC1)C2c1cc(OC)c2c(c1)OCCO2 (stereo not given)	A498 renal	0.232 µM
CC/C=C\C[C@H]1CC=C2C(=O)C=C[C@@H]2CC=CCCCC(=O)O[C@@H](CCCCC)CC=C2C(=O)C=C[C@@H]2CC=CCCCC(=O)O[C@@H](CCCCC)CC=C2C(=O)C=C[C@@H]2CC=CCCCC(=O)O[C@@H](CCCCC)CC=C2C(=O)C=C[C@@H]2CC=CCCCC(=O)O1	A498 renal	> 7.9 µM
O=c1[nH]c2cc(C(F)(F)F)ccc2nc1C(F)(F)F	A498 renal	> 100 µM
O=C1C2=Cc3ccccc3OC2(O)Oc2cc3ccccc3cc21 (stereo not given)	A498 renal	> 100 µM
O=C(Nc1ccc(Cl)cc1)C1C(=O)C(=O)N(c2ccc(Cl)cc2)C1=O (stereo not given)	A498 renal	> 100 µM
CS(=O)(=O)C(C#N)c1nc2ccccc2nc1Cl (stereo not given)	A498 renal	> 100 µM
O=S(=O)(O)c1ccc(N=Nc2ccc3c(S(=O)(=O)O)cccc3c2O)c2ccccc12	A498 renal	> 100 µM
Cc1cccc(Cl)c1NCC(O)CN1CCN(C)CC1 (stereo not given)	A498 renal	> 100 µM
Cc1ccc(S(=O)(=O)N/N=C2\CCCCC23CCC(=O)NC3)cc1 (stereo not given)	A498 renal	> 100 µM
COc1cc2c(cc1O)c(O)cc1c3cc(OC)c(OC)cc3c[n+](C)c21	A498 renal	> 100 µM
Cc1cc(Cl)ccc1OCC(=O)Nc1nc2c(Cl)cccc2s1	A498 renal	> 100 µM
CNC(=O)OCc1c(COC(=O)NC)c(-c2ccc(-c3ccccc3)cc2)n(C)c1C	A498 renal	2.39 µM
COC(=O)c1csc([C@@H](OC(=O)[C@H](C)[C@H](CCCC(C)(Cl)Cl)OC(=O)c2csc([C@H](O)CO)n2)C(C)C)n1	A498 renal	32.7 µM
O=C(NN1C(=O)C(Cl)C1c1ccc(Cl)cc1)c1c(Cl)c(Cl)c(Cl)c(Cl)c1-c1nc2ccccc2[nH]1 (stereo not given)	A498 renal	63.6 µM
CC1(c2cccc(C3CC4(CCC3=O)OCCCCO4)c2)OCCO1 (stereo not given)	A498 renal	> 100 µM
CC(=O)Oc1c(C)c(-c2ccccc2)c(C)c(-c2ccccc2)c1C(=S)c1ccccc1	A498 renal	> 100 µM
O=C1C=CC(=O)C2C1C1(Cl)C(Cl)=C(Cl)C2(Cl)C1(Cl)Cl (stereo not given)	A498 renal	5.8 µM
N[C@H](C(=O)O)[C@@H]1CC(Cl)=NO1	A498 renal	> 887 µM
CC(C)(C)C1CCC(=O)/C(=C/CC2CC(=O)N(c3ccccc3)C(=O)C2)C1 (stereo not given)	A498 renal	61.2 µM
CC(C)(C)C1=C(Br)C(C(C)(C)C)OP1(=O)O (stereo not given)	A498 renal	> 100 µM

====

Form field: TGI (one value per entry).
# Tested on: LOX IMVI melanoma
# Test description: NCI tumour cell line growth inhibition, 48 h
Observed property: TGI

Molecule	Tested target	Observed property	Result
COc1cc(NCC(C#N)C#N)ccc1N=Nc1ccc(Cl)cc1	LOX IMVI melanoma	TGI	36.1 µM
NC1=NN(c2ccccc2)C(=O)C1C(=O)CCC(=O)Nc1cccc(Cl)c1 (stereo not given)	LOX IMVI melanoma	TGI	> 100 µM
COc1c(=O)cc2cc[nH]c3cc[nH]c1c23	LOX IMVI melanoma	TGI	> 100 µM
O=C(Nc1cccc(O)c1)C(=O)C1C(=O)NC(=S)NC1=O	LOX IMVI melanoma	TGI	> 100 µM
O=C(O)CCC1CCc2cccc(O)c2C1=O (stereo not given)	LOX IMVI melanoma	TGI	> 100 µM
CCOC(=O)c1ccc(N=C/C=C(\Nc2ccc(C(=O)OCC)cc2)C23CC4CC(CC(C4)C2)C3)cc1	LOX IMVI melanoma	TGI	> 100 µM
Cc1ccc(C(=O)O)c(/C=C2\Cc3ccc(C)cc3C2=O)c1	LOX IMVI melanoma	TGI	> 100 µM
COc1ccc2c(c1)OC1=C(C(=O)OC1)C2c1cc(OC)c2c(c1)OCCO2 (stereo not given)	LOX IMVI melanoma	TGI	> 100 µM
C=CC[C@]1(/C=N/O)CN(S(=O)(=O)CC[Si](C)(C)C)C[C@H]2CC=CC[C@H]21	LOX IMVI melanoma	TGI	40.4 µM
O=S(=O)(C1=CC(S(=O)(=O)c2ccccc2)CN(Cc2ccccc2)C1c1cccc2ccccc12)c1ccccc1 (stereo not given)	LOX IMVI melanoma	TGI	> 69 µM
